Below are IC50 values for Coagulation factor X (Homo sapiens) collected from several publications.
Readout: IC50 (nM)

Completed entries (count: 5):
>>> meas_value("CN[C@H](Cc1ccccc1)C(=O)N1CCC[C@H]1C(=O)N[C@H](C=O)CCCN=C(N)N")
4000
>>> meas_value("COc1ccc(NC(=O)C(=O)Nc2ccc(OC)cc2C(=O)Nc2ccc(N3CCOCC3=O)cc2)cc1")
612
>>> meas_value("CC(C)C[C@H](NC(=O)[C@H](Cc1ccccc1)NC(=O)CCCN=C(N)N)C(=O)N[C@@H](CC1CCCCC1)[C@@H](O)c1nccs1")
6000
>>> meas_value("CN(C(=O)[C@@H]1Cc2ccccc2CN1S(=O)(=O)Cc1ccc(Cl)cc1)c1ccc(N2CCCCC2=O)cc1")
151000
>>> meas_value("CS(=O)(=O)N(Cc1ccc2ccc(C(=N)N)cc2c1)C1CCN(S(=O)(=O)c2cc(Cl)ccc2Cl)CC1")
65

1. CCOC(=O)[C@]1(C)CCC[C@@]2(C)[C@@H]3CC[C@@]4(C)C[C@]3(CC[C@@H]21)C/C4=N\NC(=S)Nc1cccc(Cl)c1
2. N=C(N)NCCC[C@H](NC(=O)CN1CCN(S(=O)(=O)Cc2ccccc2)[C@@H](CC(=O)O)C1=O)C(=O)c1nccs1
3. CNC(=O)Cc1cn2c(N3CCN(C(=O)CCS(=O)(=O)c4ccc5cc(Cl)ccc5c4)CC3)cccc2n1
4. NCc1ccccc1-c1ccc(C(=O)Nc2ccc(Cl)cc2C(=O)Nc2ccc(Cl)cn2)cc1
Number of compounds to sort: 4. Sort criterion: IC50, ascending. List the labels according to the requested ordering.
4, 3, 1, 2

###

Hi, quick share: literature IC50 data for Coagulation factor X (Homo sapiens, UniProt P00742), several sources combined.
Readout: IC50 (nM)

P. COC(=O)CC[C@@H]1C(=O)N(CC(=O)N[C@@H](CCCNC(=N)N)C(=O)c2nccs2)CCN1S(=O)(=O)Cc1ccccc1
Q. O=C(C(=O)N1CCC[C@H]1CN1CCCC1)N1CC[C@H](CNS(=O)(=O)/C=C/c2ccc(Cl)s2)C1
R. CC(CCc1ccccc1)Nc1c(F)c(Oc2cccc(C(=N)N)c2)nc(Oc2ccc(C(=O)NCc3cccc(O)c3)cc2C(=O)O)c1F (centres undefined)
S. O=C(CN1CCCC[C@H](N/C(=C/[N+](=O)[O-])Nc2ccc3occc3c2)C1=O)N1CCCC1
Arrange these compounds by their IC50, starting with the largest number. Output the labels ranked as instructed.
R, S, Q, P
(R: 4100 nM, S: 539 nM, Q: 70 nM, P: 1 nM)

1. CNNC(=N)c1cccc(/C(C)=C(/F)C(=O)Nc2ccc(-c3ccccc3S(N)(=O)=O)cc2)c1
2. N=C(c1ccc(C(=O)Nc2ccc(Cl)cc2C(=O)Nc2ccc(Cl)cn2)cc1)N1CCCCC1
3. Cc1nccn1CCCCC1CCN(C(=O)CCS(=O)(=O)c2ccc3cc(Cl)ccc3c2)CC1
Rank descending by IC50. List the labels in the requested order.
3, 1, 2

P. CN1CCc2nc(C(=O)N[C@@H]3C[C@@H](C(=O)N(C)C)CC[C@@H]3NC(=O)C3=NS(=O)(=O)c4cc(Cl)ccc4N3)sc2C1
Q. N=C(N)c1cccc(OCC(=O)Nc2ccc(C(=O)N3CCOCC3)cc2)c1
Hi there! Just curious which has the higher IC50 between P and Q . Bench note: the answer is the label of the chosen record.
Q
(Q: 1120 nM, P: 4.9 nM)

###

pIC50: −log10 of the molar value.
# merged literature set: pIC50 with Coagulation factor X (Homo sapiens)
Readout: pIC50

For orientation, consider the following solved cases.
>>> meas_value("CCOC(=O)[C@]1(C)CCC[C@@]2(C)[C@@H]3CC[C@@]4(C)C[C@]3(CC[C@@H]21)C[C@H]4OCc1cn(-c2ccccc2C)nn1")
4.46
>>> meas_value("Cc1cccc(NC(=N[C@H]2CCCCN(CC(=O)N3CCCC3)C2=O)NC(=O)c2cc(F)cc(F)c2)c1")
6.40
>>> meas_value("CCN(CC)C(=O)c1cccc(-c2ccc3c(c2)[C@@H]2[C@@H](CCCCC(=N)N)C(=O)N(C(=O)OC)[C@H]2C3)c1")
5.66
>>> meas_value("CN(C)C(=N)c1ccc(C(=O)Nc2c(C(=O)Nc3ccc(Cl)cn3)cc(Cl)cc2N2CCCCC2)cc1")
9.05
>>> meas_value("CC1(C)OC[C@@H]([C@@]2(C)CC[C@@H]3C4(CC[C@@H]5[C@](C)(CO)C[C@@H](O)C[C@@]35C)OC42)O1 (stereo not given in full)")
4.73

A. N=C(N)c1ccc(CNC(=O)CN2C(=O)[C@H](NS(=O)(=O)Cc3ccccc3)CSc3ccc(N)cc32)cc1
B. Cc1ccc(NC(=O)c2cc(Cl)ccc2NC(=O)c2ccc(C(=N)N(C)C)cc2)nc1
Pick one, A or B : lowest reported pIC50. Record your answer as the label of the chosen record.
A
(A: 5.82, B: 8.96)

A. CCOC(=O)C(Cc1cc2cc(C(=N)N)ccc2o1)c1ccc(O[C@H]2CCNC2)cc1 (stereo not given in full)
B. Cc1cc(C(=O)Nc2ccc(N3CCOCCC3=O)cc2F)n(-c2cc3ccccc3cc2S(C)(=O)=O)n1
C. COc1ccc(NC(=O)c2cc(OC)ccc2NC(=O)c2ccc(N3CCCCC3=O)cc2)cc1
D. CN1CCN=C1c1ccc(C(=O)N2CCN(S(=O)(=O)c3cc4cc(Cl)ccc4s3)CC2)cc1
In this exercise, place the 4 molecules in ascending sequence of their recorded pIC50. # list labels per requested ordering
A, C, D, B
(A: 6.00, C: 6.29, D: 6.57, B: 7.64)

I. N#C/N=C(\Nc1ccc2ccccc2c1)N[C@H]1CCCCN(CC(=O)N2CCCC2)C1=O
II. CCOC(=O)CS(=O)(=O)N(Cc1ccc2ccc(C(=N)N)cc2c1)c1ccc(OC2CCN(C(C)=N)CC2)cc1
III. COC(=O)C(Cc1cccc(C(=N)N)c1)C(/C=C/c1ccccc1)NC(=O)c1ccc(-c2ccccc2OC)cc1 (stereo not given)
IV. N=C(N)NCCC[C@H](NC(=O)CNC(=O)[C@@H](CCCNC(=N)N)NS(=O)(=O)CCc1ccccc1)C(=O)c1nc2ccccc2s1
V. C/C(=C(\F)C(=O)Nc1ccc(-c2ccccc2S(N)(=O)=O)cc1)c1ccc2[nH]nc(N)c2c1
Task field, ranking: reported pIC50, descending order. As an answer, provide the labels arranged in the order called for.
IV, II, III, I, V
(IV: 8.70, II: 8.22, III: 7.30, I: 6.11, V: 5.23)

###

Dear all, I have gathered published pIC50 values for Coagulation factor X (Homo sapiens, UniProt P00742); the list follows.
pIC50: −log10 of the molar value.
Readout: pIC50

Field: example entries. Status: answers known.
>>> meas_value("N=C(N)NCCC[C@H](NC(=O)Cn1c(-c2ccccc2)c(Cl)nc(NCCc2ccccc2)c1=O)C(=O)c1nccs1")
5.85
>>> meas_value("CCOC(=O)CN(C(=O)CCS(=O)(=O)c1ccc2cc(Cl)ccc2c1)C1CCN(c2ccncc2)CC1")
7.22
>>> meas_value("O=C(NC[C@@H]1OC(=O)N2c3ccc(N4CCN(S(=O)(=O)c5ccccc5)CC4=O)cc3OC[C@@H]12)c1ccc(Cl)s1")
5.26

I. COc1ccc2c(c1)C(=O)N(c1ccc(N3CCCCC3=O)cc1)CN2C(=O)Cc1ccccc1
II. CN(C(=O)[C@@H]1Cc2ccccc2CN1C(=O)c1ccc(Cl)s1)c1ccc(N2CCCCC2=O)cc1
III. COCCN(C)Cc1ccc(C(=O)Nc2ccc(Cl)cc2C(=O)Nc2ccc(Cl)cn2)cc1
IV. Cn1cc(-c2ccc(C(=O)N[C@@H]3CCN(c4ncc(Cl)c5c(N)noc45)C3)c(Cl)c2)ccc1=O
V. CN1CCc2nc(C(=O)N[C@@H]3CCCCC[C@@H]3NC(=O)c3cc4cc(Cl)ccc4[nH]3)sc2C1
Provide the items ranked by increasing pIC50. When ranking, write the labels in the order the request describes.
II, IV, I, V, III
(II: 4.25, IV: 4.70, I: 5.39, V: 6.76, III: 7.28)

###

pIC50: −log10 of the molar value.
Several publications report pIC50 on Coagulation factor X (Homo sapiens, UniProt P00742); those values are gathered here.
Readout: pIC50

>>> meas_value("N=C(N)NCCC[C@@H](NC(=O)CN1CCN(C(=O)Cc2ccc(Cl)cc2)CC1=O)C(=O)c1nccs1")
7.77

A. CC(C)[C@H](NC(=O)[C@H](Cc1cccnc1)NC(=O)N[C@H](C)c1ccc(Br)cc1)C(=O)N[C@@H](CCCNC(=N)N)C(=O)c1nccs1
B. NCc1ccc(C(=O)N2C[C@@H](n3cc(C4CC4)nn3)C[C@H]2C(=O)NCC(c2ccccc2)c2ccccc2)cc1
C. N=C(c1ccc(C(=O)N2CCN(S(=O)(=O)c3cc4cc(Cl)ccc4[nH]3)CC2)cc1)N1CCCCC1
Sort (3 molecules) by pIC50: min first. Give the labels in the order specified.
B, A, C
(B: 4.15, A: 5.85, C: 6.92)
